Measured Target: human Claudin 18.2 (CLDN18.2) (human, UniProt P56856-2 1-261)
Test: cell-based or functional assay
Readout: ADCC EC50, NCI-N87-CLDN18.2, FcR-TANK (nM)

>  <Binder>
364D1A7-H4L1 (antibody, V domains shown, humanized IgG; constant regions not specified; also called 364D1A7-H41L) VH: DVQLVESGGGLVQPGGSLRLSCAASGFTFSSFGMHWVRQAPGKGLEWVAYISSGSGSIYYADTVKGRFTLSRDNPKNTLYLQMNSLRAEDTAVYYCATSYYYGNALEYWGQGTTVTVSS VL: DIVMTQSPDSLAVSLGERATINCKSSQSLFNVGNQKNYLTWYQQKPGQPPKLLIYWASTRKSGVPDRFSGSGSGTDFTLTISSLQAEDVAVYYCQNVYSYPLTFGGGTKVEIK

>  <Recorded Value>
0.31

$$$$

Measured values drawn from patent US20210380680A1 for this set.
